Recorded AC50, one value per entry.
molecular target: Vascular endothelial growth factor receptor 2 (Homo sapiens); assay type: functional; also: assay procedure not described here
Sequence (P35968 whole entry): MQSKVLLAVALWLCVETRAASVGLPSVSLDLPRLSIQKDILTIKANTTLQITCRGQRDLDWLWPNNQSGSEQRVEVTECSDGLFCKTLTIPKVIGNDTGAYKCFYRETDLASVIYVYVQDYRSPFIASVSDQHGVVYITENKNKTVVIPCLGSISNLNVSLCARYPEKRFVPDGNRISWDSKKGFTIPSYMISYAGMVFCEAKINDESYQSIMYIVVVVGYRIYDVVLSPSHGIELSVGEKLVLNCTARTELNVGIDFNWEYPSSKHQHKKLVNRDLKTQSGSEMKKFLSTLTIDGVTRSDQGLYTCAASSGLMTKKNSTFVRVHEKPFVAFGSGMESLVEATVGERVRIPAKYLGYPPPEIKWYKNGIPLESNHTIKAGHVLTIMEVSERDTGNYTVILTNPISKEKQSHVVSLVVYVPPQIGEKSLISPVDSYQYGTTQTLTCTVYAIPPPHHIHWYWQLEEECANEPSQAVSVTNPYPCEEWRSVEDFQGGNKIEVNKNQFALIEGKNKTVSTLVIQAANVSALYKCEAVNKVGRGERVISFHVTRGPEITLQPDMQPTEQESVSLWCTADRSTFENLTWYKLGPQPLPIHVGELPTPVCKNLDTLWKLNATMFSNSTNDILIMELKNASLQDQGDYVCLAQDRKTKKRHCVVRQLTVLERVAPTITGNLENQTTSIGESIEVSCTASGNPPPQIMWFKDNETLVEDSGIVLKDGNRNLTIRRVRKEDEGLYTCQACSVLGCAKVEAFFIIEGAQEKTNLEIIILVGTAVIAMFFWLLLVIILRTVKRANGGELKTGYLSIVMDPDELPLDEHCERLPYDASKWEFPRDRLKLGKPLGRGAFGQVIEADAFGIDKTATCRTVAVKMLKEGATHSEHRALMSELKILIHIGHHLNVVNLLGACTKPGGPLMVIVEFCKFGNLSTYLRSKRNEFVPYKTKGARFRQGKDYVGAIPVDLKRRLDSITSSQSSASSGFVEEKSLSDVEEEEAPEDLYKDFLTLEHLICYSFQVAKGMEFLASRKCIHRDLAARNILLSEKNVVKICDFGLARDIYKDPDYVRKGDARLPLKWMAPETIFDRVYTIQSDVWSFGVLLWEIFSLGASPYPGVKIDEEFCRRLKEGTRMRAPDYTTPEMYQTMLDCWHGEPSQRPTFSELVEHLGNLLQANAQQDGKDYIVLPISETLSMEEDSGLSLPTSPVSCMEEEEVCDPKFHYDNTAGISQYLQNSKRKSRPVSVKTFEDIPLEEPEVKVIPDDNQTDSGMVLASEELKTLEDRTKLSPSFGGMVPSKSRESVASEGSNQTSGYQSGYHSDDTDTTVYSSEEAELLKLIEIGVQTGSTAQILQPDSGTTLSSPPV

Previously resolved entries follow.
molecule | experimental-value
CCC(Cc1c(I)cc(I)c(N)c1I)C(=O)O (stereo not drawn) | > 30 µM
Sc1ncnc2nc[nH]c12 [MERCAPTOPURINE ANHYDROUS] | > 30 µM

Now look at this entry.
Prompt line: Find the recorded AC50 belonging to O=C(COc1ccc(Cl)cc1)N1CCN(Cc2ccc3c(c2)OCO3)CC1 [FIPEXIDE] and report it.
Response line: > 30 µM

----------
target: 3',5'-cyclic-AMP phosphodiesterase 4D (Homo sapiens, UniProt Q08499); format: functional; also: assay procedure not described here
Sequence (Q08499 whole entry): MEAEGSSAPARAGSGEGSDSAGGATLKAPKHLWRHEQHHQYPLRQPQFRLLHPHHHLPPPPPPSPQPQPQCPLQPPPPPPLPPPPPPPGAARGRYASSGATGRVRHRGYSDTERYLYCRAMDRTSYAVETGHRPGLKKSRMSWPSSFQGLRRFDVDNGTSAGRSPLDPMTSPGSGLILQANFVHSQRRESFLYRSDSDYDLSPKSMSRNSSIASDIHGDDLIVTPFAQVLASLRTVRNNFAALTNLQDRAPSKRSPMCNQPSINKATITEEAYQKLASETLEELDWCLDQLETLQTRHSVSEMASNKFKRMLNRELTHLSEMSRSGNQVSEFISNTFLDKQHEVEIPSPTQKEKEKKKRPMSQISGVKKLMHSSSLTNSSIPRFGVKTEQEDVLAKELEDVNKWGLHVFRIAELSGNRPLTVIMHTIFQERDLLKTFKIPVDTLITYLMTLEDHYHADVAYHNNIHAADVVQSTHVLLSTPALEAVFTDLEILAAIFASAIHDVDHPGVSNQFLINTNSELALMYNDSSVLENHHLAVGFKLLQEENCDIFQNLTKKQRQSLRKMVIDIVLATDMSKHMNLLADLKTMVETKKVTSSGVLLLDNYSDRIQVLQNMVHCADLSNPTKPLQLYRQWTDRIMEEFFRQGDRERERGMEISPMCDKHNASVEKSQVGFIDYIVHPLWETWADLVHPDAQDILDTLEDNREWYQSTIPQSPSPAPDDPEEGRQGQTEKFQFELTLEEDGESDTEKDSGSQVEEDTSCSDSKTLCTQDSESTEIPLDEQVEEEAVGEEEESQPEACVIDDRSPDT
Catalogue of AC50 readings, one per entry.

Prompt line: Query (compound): CO/N=C(\C(=O)N[C@@H]1C(=O)N2C(C(=O)[O-])=C(C[N+]3(C)CCCC3)CS[C@H]12)c1csc(N)n1 ; field requested: AC50
Response line: > 300 µM

----------
target: Prostaglandin G/H synthase 1 (Homo sapiens); format: functional; also: assay procedure not described here
Sequence (P23219 whole entry): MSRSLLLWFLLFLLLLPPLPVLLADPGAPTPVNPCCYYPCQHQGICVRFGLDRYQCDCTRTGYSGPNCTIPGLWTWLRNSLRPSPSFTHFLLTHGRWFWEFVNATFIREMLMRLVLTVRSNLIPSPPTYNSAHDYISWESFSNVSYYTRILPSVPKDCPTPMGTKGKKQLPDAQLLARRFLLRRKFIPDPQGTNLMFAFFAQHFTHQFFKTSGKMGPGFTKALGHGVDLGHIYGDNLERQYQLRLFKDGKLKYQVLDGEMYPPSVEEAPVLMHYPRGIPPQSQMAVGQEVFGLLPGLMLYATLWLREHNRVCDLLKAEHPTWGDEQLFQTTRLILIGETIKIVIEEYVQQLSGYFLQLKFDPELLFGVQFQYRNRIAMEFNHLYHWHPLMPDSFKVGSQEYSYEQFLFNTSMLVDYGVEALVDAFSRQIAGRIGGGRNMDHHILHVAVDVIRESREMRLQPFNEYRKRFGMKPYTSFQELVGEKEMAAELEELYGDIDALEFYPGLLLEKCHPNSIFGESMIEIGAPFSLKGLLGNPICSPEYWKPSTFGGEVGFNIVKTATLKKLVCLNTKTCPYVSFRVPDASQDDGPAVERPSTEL
property-label: AC50

Prompt line: Need AC50 of O=C(NC1CCN(CCCCC2(C(=O)NCC(F)(F)F)c3ccccc3-c3ccccc32)CC1)c1ccccc1-c1ccc(C(F)(F)F)cc1 [LOMITAPIDE] , thanks.
Response line: 23.2 µM

----------
So I've got AC50 readings for Melanocortin receptor 3 (Homo sapiens), take a look.

molecule | experimental-value
Nc1nc(N)c2nc(-c3ccccc3)c(N)nc2n1 | > 30 µM
CC(C)NCC1CCc2cc(CO)c([N+](=O)[O-])cc2N1 (centres undefined) | > 10 µM
NC(=O)c1ncn([C@@H]2O[C@H](CO)[C@@H](O)[C@H]2O)c1O | > 30 µM

Prompt line: Give AC50 (Melanocortin receptor 3 (Homo sapiens)) of the following molecule: O=C1NCCN1CCN1CCC(c2cn(-c3ccc(F)cc3)c3ccc(Cl)cc23)CC1
Response line: 12 µM

Prompt line: Item: CC(C(=O)O)c1ccc(N2CC=CC2)c(Cl)c1 (centres undefined) Test system: Melanocortin receptor 3 (Homo sapiens) Read-out: AC50 Value: ?; also: assay procedure not described here
Sequence (P41968 whole entry): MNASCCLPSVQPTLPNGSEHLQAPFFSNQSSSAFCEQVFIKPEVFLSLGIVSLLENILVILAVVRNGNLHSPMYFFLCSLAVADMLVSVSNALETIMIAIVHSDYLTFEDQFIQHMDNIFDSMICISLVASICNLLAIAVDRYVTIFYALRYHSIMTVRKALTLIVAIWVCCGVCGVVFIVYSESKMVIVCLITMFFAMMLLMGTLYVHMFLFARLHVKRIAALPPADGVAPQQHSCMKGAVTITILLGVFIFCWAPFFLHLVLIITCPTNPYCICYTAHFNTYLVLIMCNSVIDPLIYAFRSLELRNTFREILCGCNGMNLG
Response line: > 30 µM

Prompt line: Query for Melanocortin receptor 3 (Homo sapiens): what AC50 does the record show for NC(CO)C(=O)NNCc1ccc(O)c(O)c1O (centres undefined) [BENSERAZIDE] ?
Response line: > 30 µM

Prompt line: Any idea what AC50 came out for OCc1cc([C@@H](O)CNCCCCCCOCCOCc2c(Cl)cccc2Cl)ccc1O on Melanocortin receptor 3 (Homo sapiens)?
Response line: 26 µM

Prompt line: Tell me reported AC50 for COc1ccccc1OCC(O)COC(N)=O (centres undefined) , tested with Melanocortin receptor 3 (Homo sapiens).
Response line: > 10 µM

Prompt line: Could you share what AC50 was measured for CC(=O)O[C@]1(C(C)=O)CC[C@H]2[C@@H]3C[C@H](C)C4=CC(=O)CC[C@]4(C)[C@H]3CC[C@@]21C [MEDROXYPROGESTERONE ACETATE] , tested on Melanocortin receptor 3 (Homo sapiens)?; also: assay procedure not described here
Response line: > 30 µM

Prompt line: What is its AC50 for Melanocortin receptor 3 (Homo sapiens)? Entry: CC(N)Cc1ccccc1 (centres undefined)
Response line: > 30 µM

Prompt line: What value of AC50 on Melanocortin receptor 3 (Homo sapiens) does CO/N=C(\C(=O)N[C@@H]1C(=O)N2C(C(=O)[O-])=C(C[N+]3(C)CCCC3)CS[C@H]12)c1csc(N)n1 have?
Response line: > 300 µM

Prompt line: Lookup: AC50 / Melanocortin receptor 3 (Homo sapiens) / CN(CCOc1ccc(NS(C)(=O)=O)cc1)CCc1ccc(NS(C)(=O)=O)cc1 [DOFETILIDE]
Response line: > 30 µM

Prompt line: Param readout = AC50; param system = Melanocortin receptor 3 (Homo sapiens); param query = O=C(CCCCC(=O)Nc1c(I)cc(I)c(C(=O)O)c1I)Nc1c(I)cc(I)c(C(=O)O)c1I [IODIPAMIDE] ; response: value; also: assay procedure not described here
Response line: > 10 µM

Prompt line: Item CC(C)Cc1ccc(CC(=O)O)cc1 with Melanocortin receptor 3 (Homo sapiens) - AC50?
Response line: > 30 µM

Prompt line: Request - read-out AC50 | tested on Melanocortin receptor 3 (Homo sapiens) | molecule CCN(CC)CCNC(=O)c1cc(Cl)c(N)cc1OC [METOCLOPRAMIDE]; also: assay procedure not described here
Response line: > 30 µM

Prompt line: Lookup: AC50 / Melanocortin receptor 3 (Homo sapiens) / N[C@@H](C(=O)N[C@@H]1C(=O)N2C(C(=O)O)=C(Cl)CS[C@H]12)c1ccccc1 [CEFACLOR ANHYDROUS]
Response line: > 30 µM

Prompt line: Can you look up AC50 on Melanocortin receptor 3 (Homo sapiens) for CN1CCCC(n2nc(Cc3ccc(Cl)cc3)c3ccccc3c2=O)CC1 (centres undefined) ?
Response line: > 30 µM

Prompt line: Param readout = AC50; param system = Melanocortin receptor 3 (Homo sapiens); param query = CC(C)(Oc1ccc(C2CC2(Cl)Cl)cc1)C(=O)O (centres undefined) [CIPROFIBRATE] ; response: value; also: assay procedure not described here
Response line: > 30 µM

Prompt line: Any idea what AC50 came out for O=C(O)CCCc1ccccc1 on Melanocortin receptor 3 (Homo sapiens)?
Response line: > 10 µM
